Measured EC50 accompanies every entry in the list below.
# TEST SYSTEM: Claudin 18.2 (CLDN18.2), expressed on CHOS-CLDN 18.2 / HEK293-CLDN 18.2 / HCC827-CLDN 18.2 cells (human, UniProt P56856 1-261)
# TEST PROTOCOL: cell ELISA
Write the value in µg/mL as a bare number.

QP14571454 (antibody, V domains shown) VH: QVQLVQSGAEVKKPGASVKVSCKASGYTFTNYFVHWVRQAPGQGLEWIGYINPYNDDTKYNEKFKGRVTLTRDTSTSTVYMELSSLRSEDTAVYYCLSLRFFAYWGQGTLVTVSS VL: DIVMTQSPDSLAVSLGERATISCKSSQSLLNSGNQKNYLTWYQQKPGQAPKLLIYWASTRESGVPDRFSGSGSGTDFTLTISSVQAEDVAVYFCQNDYSYPLTFGGGTKVEIK; 0.357
QP14581454 (antibody, V domains shown) VH: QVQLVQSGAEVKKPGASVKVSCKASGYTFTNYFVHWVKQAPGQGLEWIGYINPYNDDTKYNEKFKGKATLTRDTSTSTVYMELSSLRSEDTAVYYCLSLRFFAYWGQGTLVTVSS VL: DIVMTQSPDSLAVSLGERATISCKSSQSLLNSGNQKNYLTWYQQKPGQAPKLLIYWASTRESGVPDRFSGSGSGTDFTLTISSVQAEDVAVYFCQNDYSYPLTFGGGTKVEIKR; 0.21

Next item in the queue.
Exercise: Reported EC50 for QP14561452 (antibody, V domains shown) VH: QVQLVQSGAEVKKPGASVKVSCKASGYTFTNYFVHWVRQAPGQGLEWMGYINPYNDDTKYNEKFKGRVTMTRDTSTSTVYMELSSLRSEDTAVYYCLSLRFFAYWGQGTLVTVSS VL: DIVMTQSPDSLAVSLGERATINCKSSQSLLNSGNQKNYLTWYQQKPGQPPKLLIYWASTRESGVPDRFSGSGSGTDFTLTISSLQAEDVAVYYCQNDYSYPLTFGGGTKVEIK : what is it?
Key: 0.389
